- System: 889142-216-R-J1-PDC complex spheroid viability;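 note: spheroids exposed to compounds for seven days; 100% = DMSO vehicle control viability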
- procedureSummary: Anticancer human tumor 889142-216-R-J1-PDC patient-derived bladder carcinoma cell line growth inhibition [POLQ]
- runParameters: second compound 0.316 µM; first compound 0.316 µM; active compounds read low
Overview of reported viability, T/C across a group of molecules:
Use % as the unit, but write only the number.

Reference set, count: 2
molecule	unitSymbol	measuredValue
O=C(Nc1ccc(O)c(NS(=O)(=O)c2ccc(F)cc2)c1)c1ccc(-c2ccccc2)cc1 + COC1C(OC(N)=O)C(O)C(Oc2ccc3c(O)c(NC(=O)c4ccc(O)c(CC=C(C)C)c4)c(=O)oc3c2C)OC1(C)C	%	99.9
COc1cccc(OCCCN)c1-c1cc(Nc2cnc(C#N)cn2)n[nH]1 + Cc1cccc(N(C)C(=O)C2C(O)CCN2c2nc(C)cc(C(F)(F)F)c2C#N)c1	%	50.5

Entry C=CC(=O)N1CCN(c2nc(=O)n(-c3c(C)ccnc3C(C)C)c3nc(-c4c(O)cccc4F)c(F)cc23)C(C)C1 (centres undefined) + Nc1ccc(C#CCN(C(=O)Cc2ncc(C(F)(F)F)cc2C(F)(F)F)c2ccc(F)cc2)nn1 : reported viability, T/C = ? 96.3

Entry C#Cc1c(F)ccc2cc(O)cc(-c3ncc4c(N5CC6CCC(C5)N6)nc(OCC56CCCN5CC(F)C6)nc4c3F)c12 (centres undefined) + Cc1cccc(N(C)C(=O)C2C(O)CCN2c2nc(C)cc(C(F)(F)F)c2C#N)c1 : reported viability, T/C = ? 66.4
